target: Or22a and Or83b (Drosophila melanogaster, UniProt P81909+Q9VNB5); construct: expressed in transfected cells; host or cells: HEK293; test: Whole-cell patch-clamp of currents in HEK293 cells coexpressing Or22a and Or83b; assay type: cell-based; conditions: EC50 of Etb-induced currents, 500 µM GDP-β-S in the pipette; n = 11
Sequence (P81909 whole entry): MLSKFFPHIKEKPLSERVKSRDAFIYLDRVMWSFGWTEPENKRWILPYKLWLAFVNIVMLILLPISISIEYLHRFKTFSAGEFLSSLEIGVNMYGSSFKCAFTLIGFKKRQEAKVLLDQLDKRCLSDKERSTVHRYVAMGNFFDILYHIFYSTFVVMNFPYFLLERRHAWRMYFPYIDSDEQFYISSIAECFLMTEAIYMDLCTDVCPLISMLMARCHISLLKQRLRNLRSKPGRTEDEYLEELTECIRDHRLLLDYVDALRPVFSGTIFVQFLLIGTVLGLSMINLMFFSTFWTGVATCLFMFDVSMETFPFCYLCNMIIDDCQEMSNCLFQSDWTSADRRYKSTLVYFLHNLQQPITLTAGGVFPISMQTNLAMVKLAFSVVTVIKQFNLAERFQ
Sequence (Q9VNB5 whole entry): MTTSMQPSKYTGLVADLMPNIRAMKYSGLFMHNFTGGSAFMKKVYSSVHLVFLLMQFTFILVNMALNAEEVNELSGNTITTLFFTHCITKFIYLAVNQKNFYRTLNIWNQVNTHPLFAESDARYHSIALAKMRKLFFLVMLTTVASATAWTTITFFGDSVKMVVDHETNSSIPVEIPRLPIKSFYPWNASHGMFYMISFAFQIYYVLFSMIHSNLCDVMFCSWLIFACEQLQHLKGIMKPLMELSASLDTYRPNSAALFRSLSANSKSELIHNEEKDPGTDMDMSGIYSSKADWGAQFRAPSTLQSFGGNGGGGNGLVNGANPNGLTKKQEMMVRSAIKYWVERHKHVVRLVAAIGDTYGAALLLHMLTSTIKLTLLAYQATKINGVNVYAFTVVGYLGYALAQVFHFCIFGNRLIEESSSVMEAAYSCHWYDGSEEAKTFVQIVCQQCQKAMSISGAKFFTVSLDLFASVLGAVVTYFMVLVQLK
Value Kind: EC50

>>> df
                            compound                       experimental_system  value_kind  assay_result
0  CCCC(=O)OCC [Etb, ethyl butyrate]  Or22a and Or83b (Drosophila melanogaster, UniProt P81909+Q9VNB5)        EC50         70 nM

###

target: Or22a and Or83b (Drosophila melanogaster, UniProt P81909+Q9VNB5); construct: expressed in transfected cells; host or cells: HEK293; test: Whole-cell patch-clamp of currents in HEK293 cells coexpressing Or22a and Or83b; type: cell-based; details: cells coexpressing Or22a, Or83b and hKCNQ4; normalized to maximum response; n = 6; read-out: EC50 of olfactory receptor current (ORC)
pEC50: −log10 of the molar value.
Value Kind: pEC50

>>> df
                            molecule  assay_result
0  CCCC(=O)OCC [Etb, ethyl butyrate]          9.59

Ref: patent EP2108954A1
